experiment: chemical genetic growth profiling, strain panel (AID 1159580);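 further: tested at 20 µM; growth read once vehicle control cultures reached saturation at 30 °C; 1 = growth at the plate median or of vehicle wells; lower values mean less growth of the strain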; conditions: S. cerevisiae deletion strains, growth OD, locus YFL029C, strain CAK1, active compounds read low
The campaign covered roughly 5,500 compounds. About 2,000 (36%) were called active. Inconclusive results (about 18%) are left out. The list shows a part of the results.
Listed here are compounds together with their documented normalized growth.
Respond with the number and no other words.

Example results:
1) NC(=S)N/N=C1/CCCc2ccccc21 ... 0.921
2) N/C(Cc1cccc2ccccc12)=N/OC(=O)c1ccc(Cl)cc1 ... 0.936

Please fill in: normalized growth reported for O=C(Nc1ccc(F)cc1F)c1cc(Cl)c(-n2cccc2)c(Cl)c1 = 0.967

###

experiment: chemical genetic growth profiling, strain panel (AID 1159580);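 further: tested at 20 µM; growth read once vehicle control cultures reached saturation at 30 °C; 1 = growth at the plate median or of vehicle wells; lower values mean less growth of the strain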; conditions: S. cerevisiae deletion strains, growth OD, locus YBR171W, strain sec66
The whole screen tested about 5,500 compounds, of which about 2,000 (36%) were called active. Roughly 18% stayed inconclusive and do not appear here. No stated cut-off is given here; in the data, active means normalized growth mostly below about 0.91 (no sharp cut-off); inconclusive means no clear call, values can overlap the other calls; inactive means mostly above about 0.92. Some of the results follow.
// one of yes (1) (active), no (0) (inactive), no free text

1) Cc1cc(=O)oc2cc(O)c(O)cc12 ... no (0)
2) CC1(C)CC2C1CC[C@]1(C)CCC3C(C(=O)O)CC(=O)O[C@@]32C1 (stereo partly specified) ... no (0)
3) Cc1cc(=O)oc2cc(O)cc(O)c12 ... no (0)
4) COC1CC2CCC(C)C(O)(O2)C(=O)C(=O)N2CCCCC2C(=O)OC(C(C)CC2CCC(O)C(OC)C2)CC(=O)C(C)/C=C(\C)C(O)C(OC)C(=O)C(C)CC(C)/C=C/C=C/C=C/1C (stereo unspecified) ... yes (1)
5) CCN1CCN(C(=O)NC(C(=O)N[C@@H]2C(=O)N3[C@@H]2SC(C)(C)[C@@H]3C(=O)O)c2ccccc2)C(=O)C1=O (stereo partly specified) ... no (0)
6) N[C@@H](CCC(=O)N[C@@H](CS)C(=O)NCC(=O)O)C(=O)O ... no (0)

Call for entry CC12CCC3C(CC3(C)C)C(C)(CCC1=O)O2 (stereo unspecified) :
no (0)

Call for entry CC(C)=CC1C(C(=O)O)C1(C)C (stereo unspecified) :
no (0)

Call for entry COc1ccc(C2Sc3ccccc3N(CCN(C)C)C(=O)C2OC(C)=O)cc1 (stereo unspecified) :
no (0)

Call for entry CC(C)=CCc1c2c(c3occ(-c4ccc(O)cc4)c(=O)c3c1O)C=CC(C)(C)O2 :
no (0)

###

assay: chemical genetic growth profiling, strain panel (AID 1159580);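 further: tested at 20 µM; growth read once vehicle control cultures reached saturation at 30 °C; 1 = growth at the plate median or of vehicle wells; lower values mean less growth of the strain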; conditions: S. cerevisiae deletion strains, growth OD, locus YBR231C, strain swc5
Screen size: about 5,500 compounds; about 2,000 (36%) were called active. Not shown: some 18% with an inconclusive outcome. Rule as the data show it: active = normalized growth mostly below about 0.91 (no sharp cut-off); inconclusive = no clear call, values can overlap the other calls; inactive = mostly above about 0.92. The list shows a part of the results.
// one of true for active, false for inactive, no free text

1) CO[C@H]1CC(O[C@@H]2/C(C)=C/C[C@@H]3C[C@@H](C[C@]4(CC[C@H](C)[C@@H](C5CCCCC5)O4)O3)OC(=O)[C@@H]3C=C(C)/C(=N\O)[C@H]4OC/C(=C\C=C\[C@@H]2C)[C@]43O)O[C@@H](C)C1O (stereo partly drawn) ... true
2) CC1(C)CC2C1CC[C@]1(CBr)CCC3C(CC(=O)O)C(=O)O[C@@]32C1 (stereo partly drawn) ... false

Call for entry CCC(C)[C@H]1O[C@]2(C=C[C@@H]1C)C[C@@H]1C[C@@H](C/C=C(\C)[C@@H](OC3C[C@H](OC)C(O[C@H]4C[C@H](OC)[C@@H](O)[C@H](C)O4)[C@H](C)O3)[C@@H](C)/C=C/C=C3\CO[C@@H]4[C@H](O)C(C)=C[C@@H](C(=O)O1)[C@]34O)O2 (stereo partly drawn) :
false
